Experimental Protocol: in vivo
Measurement Conditions: BALB/c nude, mouse, in vivo, iv, total radioactivity, % ID/g Tumor
Note to self: tissue uptake at 24 h under 20 %ID/g means label 1, ties and anything higher get label 0.

Does C[C@@H](O)[C@H](NC(=O)[C@@H]1CSSC[C@H](NC(=O)[C@@H](Cc2ccccc2)NC(=O)COCCOCCNC(=O)[C@H](CCCCNC(=O)c2cccc(NC(=O)N[C@@H]3CN(C4CCCCC4)c4ccccc4N(CC(=O)C(C)(C)C)C3=O)c2)NC(=O)CN2CCN(CC(=O)O)CCN(CC(=O)O)CCN(CC(=O)O)CC2)C(=O)N[C@@H](Cc2ccc(O)cc2)C(=O)N[C@H](Cc2c[nH]c3ccccc23)C(=O)N[C@@H](CCCCN)C(=O)N[C@@H]([C@@H](C)O)C(=O)N1)C(=O)O [Compound 177Lu-I-37, metal not drawn] have tissue uptake at 24 h strictly under 20 %ID/g?
label 0

hey, is tissue uptake at 24 h for CC(C)(C)C(=O)CN1C(=O)[C@H](NC(=O)Nc2cccc(C(=O)N[C@@H](CCC(=O)N[C@@H](CCC(=O)N[C@@H](CCC(=O)N[C@@H](CCCCNC(=O)COCCOCCNC(=O)COCCOCCNC(=O)CCC(C(=O)O)N3CCN(CC(=O)O)CCN(CC(=O)O)CCN(CC(=O)O)CC3)C(N)=O)C(=O)O)C(=O)O)C(=O)O)c2)CN(C2CCCCC2)c2ccccc21 (stereo partly shown) [^177Lu-C-4, metal not drawn, reference compound] lower than 20 %ID/g or not?
label 1

Given C[C@@H](O)[C@H](NC(=O)[C@@H]1CSSC[C@H](NC(=O)[C@@H](Cc2ccccc2)NC(=O)[C@H](CCCCNC(=O)COCCOCCNC(=O)c2cccc(NC(=O)N[C@@H]3CN(C4CCCCC4)c4ccccc4N(CC(=O)C(C)(C)C)C3=O)c2)NC(=O)CN2CCN(CC(=O)O)CCN(CC(=O)O)CCN(CC(=O)O)CC2)C(=O)N[C@@H](Cc2ccc(O)cc2)C(=O)N[C@H](Cc2c[nH]c3ccccc23)C(=O)N[C@@H](CCCCN)C(=O)N[C@@H]([C@@H](C)O)C(=O)N1)C(=O)O [^177Lu-I-36, metal not drawn] , is recorded tissue uptake at 24 h strictly lower than 20 %ID/g?
label 0

Lab note: confirm whether the reported tissue uptake at 24 h for this molecule is below 20 %ID/g, equality not counting. molecule: C[C@@H](O)[C@H](NC(=O)[C@@H]1CSSC[C@H](NC(=O)[C@@H](Cc2ccccc2)NC(=O)COCCOCCNC(=O)COCCOCCNC(=O)[C@H](CCCCNC(=O)c2cccc(NC(=O)N[C@@H]3CN(C4CCCCC4)c4ccccc4N(CC(=O)C(C)(C)C)C3=O)c2)NC(=O)CN2CCN(CC(=O)O)CCN(CC(=O)O)CCN(CC(=O)O)CC2)C(=O)N[C@@H](Cc2ccc(O)cc2)C(=O)N[C@H](Cc2c[nH]c3ccccc23)C(=O)N[C@@H](CCCCN)C(=O)N[C@@H]([C@@H](C)O)C(=O)N1)C(=O)O [Compound 177Lu-I-39, metal not drawn]
label 0

For this molecule, is tissue uptake at 24 h lower than 20 %ID/g? C[C@@H](O)[C@H](NC(=O)[C@@H]1CSSC[C@H](NC(=O)[C@@H](Cc2ccccc2)NC(=O)CN2CCN(CC(=O)O)CCN(CC(=O)O)CCN(CC(=O)O)CC2)C(=O)N[C@@H](Cc2ccc(O)cc2)C(=O)N[C@H](Cc2c[nH]c3ccccc23)C(=O)N[C@@H](CCCCN)C(=O)N[C@@H]([C@@H](C)O)C(=O)N1)C(=O)O [^177Lu-C-1, metal not drawn, reference compound]
label 1

Find out if reported tissue uptake at 24 h for C[C@@H](O)[C@H](NC(=O)[C@@H]1CSSC[C@H](NC(=O)[C@@H](Cc2ccccc2)NC(=O)[C@H](CCCCNC(=O)c2cccc(NC(=O)N[C@@H]3CN(C4CCCCC4)c4ccccc4N(CC(=O)C(C)(C)C)C3=O)c2)NC(=O)COCCOCCNC(=O)CN2CCN(CC(=O)O)CCN(CC(=O)O)CCN(CC(=O)O)CC2)C(=O)N[C@@H](Cc2ccc(O)cc2)C(=O)N[C@H](Cc2c[nH]c3ccccc23)C(=O)N[C@@H](CCCCN)C(=O)N[C@@H]([C@@H](C)O)C(=O)N1)C(=O)O [^177Lu-I-35, metal not drawn] is less than 20 %ID/g
label 1

Given the entry CCCC[C@H](NC(=O)[C@H](Cc1c[nH]c2ccccc12)NC(=O)CNC(=O)[C@H](Cc1ccc(O)cc1)NC(=O)[C@H](C)NC(=O)[C@@H](CCC(=O)O)NC(=O)[C@@H](CCC(=O)O)NC(=O)[C@@H](CCC(=O)O)NC(=O)[C@@H](CCC(=O)O)NC(=O)[C@@H](CCC(=O)O)NC(=O)[C@@H](CCC(=O)O)NC(=O)CN1CCN(CC(=O)O)CCN(CC(=O)O)CCN(CC(=O)O)CC1)C(=O)N[C@@H](CC(=O)O)C(=O)N[C@@H](Cc1ccccc1)C(N)=O [^177Lu-C-2, metal not drawn, reference compound] , would its reported tissue uptake at 24 h be below 20 %ID/g?
label 1

Recorded values, source patent US20260248972A1.
